# Tested on: HCT-116 colon
# test-name: NCI-60 one-dose screen, 48 h (100 = growth as untreated, 0 = no growth, -100 = all killed)
# setup-conditions: 10 µM unless noted
This is part of a sample that, as a whole, favours compounds with a hit. Of some 83,000 tested, about 20% had one in any assay.
The recorded growth of each item maps onto one of these classes: class A = under 20%, class B = from 20% up to 90%, class C = 90% and over

- molecule: "COc1ccc(/C=N\\Nc2nc(SCC(C)C)nc(-c3ccc(OC)cc3)c2C#N)cc1"
  label-class: "class A"
- molecule: "CC(=O)OC[C@]12CCC(C)(C)C=C1[C@H]1CC[C@@H]3[C@@]4(C)CCCNC(C)(C)[C@@H]4CC[C@@]3(C)[C@]1(C)CC2"
  label-class: "class B"
- molecule: "Cc1cccc(-c2nnc(SCC(=O)Nc3ncc(Cc4ccccc4)s3)n2N2C(=O)CSC2=S)c1"
  label-class: "class B"
- molecule: "CN1CCN(C(=O)OCc2nc3c(N4CCOCC4)nc(Cl)nc3n2C)CC1"
  label-class: "class A"
- molecule: "CCCCCO/N=C\\c1c2c(O)c3c(O)c(C)c4c(c3c1O)C(=O)C(C)(O/C=C\\C(OC)C(C)C(OC(C)=O)C(C)C(O)C(C)C(O)C(C)/C=C\\C=C(\\C)C(=O)N2)O4 (configuration not stated)"
  label-class: "class A"
- molecule: "O=[N+]([O-])c1ccc2[nH]c3nccc(NCc4cccc(Cl)c4)c3c2c1"
  label-class: "class B"
- molecule: "Cc1cc2nc(C(Cl)Cl)nc(-c3ccc(Cl)cc3)n2n1"
  label-class: "class A"
- molecule: "Nc1ncnc2c1C(c1ccc([N+](=O)[O-])cc1)c1sc3c(F)cccc3c1O2 (configuration not stated)"
  label-class: "class C"
- molecule: "C=C(CN1CC=CCC1)[C@@H]1CC[C@]2(COC(C)=O)CC[C@]3(C)[C@H](CC[C@@H]4[C@@]5(C)CC[C@H](O)C(C)(C)[C@@H]5CC[C@]43C)[C@@H]12"
  label-class: "class C"
- molecule: "Cn1ccnc1CN1CCSC(C(=O)Nc2ccccc2)C1 (configuration not stated)"
  label-class: "class C"
- molecule: "CN1CCCc2cc(/C=C3\\SC(=S)N(C(Cc4ccc(O)cc4)C(=O)O)C3=O)ccc21 (configuration not stated)"
  label-class: "class C"
- molecule: "CCOC(=O)c1cc2c(n1Cc1cc(OC)cc(OC)c1Br)-c1nc(NC(C)=O)sc1CCC2"
  label-class: "class B"
- molecule: "Cc1nn(-c2nc(-c3cc4ccccc4oc3=O)cs2)c(C)c1N=Nc1ccccc1"
  label-class: "class C"
- molecule: "C=C(CNCCc1ccc(O)cc1)[C@@H]1CC[C@]2(CO)CC[C@]3(C)[C@H](CC[C@@H]4[C@@]5(C)CCC(NCCc6ccc(O)cc6)C(C)(C)[C@@H]5CC[C@]43C)[C@@H]12 (some centres not stated)"
  label-class: "class A"
- molecule: "COC(=O)c1c2c(c(C)[n+]([O-])c1C)C(=O)C(NCCN1CCOCC1)=CC2=O"
  label-class: "class B"
- molecule: "COc1ccc(CCNC(=O)COc2cc3c(Nc4ccc(F)c(Cl)c4)ncnc3cc2OC)cc1OC"
  label-class: "class C"
